# Test system: SNB-19 CNS
# assay: NCI-60 one-dose screen, 48 h (100 = growth as untreated, 0 = no growth, -100 = all killed)
# conditions_used: 10 µM unless noted
This is part of a sample that, as a whole, favours compounds with a hit. Of some 83,000 tested, about 20% had one in any assay. Active and inactive are the calls of the source. The calls were made as follows: active = growth percent below 10; inactive = the rest.
result_type: growth

1. Cc1ccc(N(CSc2ccc(Cl)cc2)CSc2ccc(Cl)cc2)cc1 :: 78.6% (inactive)
2. COc1cc(/C=N/NC(=O)c2cnn3c2NC(c2ccccc2)C3)ccc1OC1CCCC1 (stereo unspecified) :: 39.1% (inactive)
3. FC(F)(F)Oc1ccc2c(c1)C[C@H]1C[C@@H](c3ccoc3)N2O1 :: 105% (inactive)
4. COc1c(Cl)ccc2c(-c3nc4cc(Cl)c(F)cc4s3)cc(=O)oc12 :: 96% (inactive)
5. O=C(Nc1ccc(F)cc1)c1ccc(C(=O)Nc2ccc(F)cc2)cc1 :: 106% (inactive)
6. Cc1c(C(=O)Nc2nc(-c3ccccc3)cs2)nnn1-c1ccccc1Br :: 61.1% [50 µM] (inactive)
7. O=C(COc1cccc(/C=C2\COc3ccccc3C2=O)c1)c1ccccc1 :: 100% (inactive)
8. Cn1c2c(cc(S(=O)(=O)c3ccccc3)c1=O)CCc1c-2cnn1-c1cccc(Cl)c1 :: 97% (inactive)
9. O=C(O)c1ccccc1Oc1cc(-c2ccco2)nc(OCCBr)n1 :: 98.6% (inactive)
10. O=C(C[Si](CC(=O)c1cccc(C(F)(F)F)c1)CC(=O)c1cccc(C(F)(F)F)c1)c1cccc(C(F)(F)F)c1 :: 101% (inactive)
11. COc1ccc(OC2=C(C#N)C(=N)N3c4ccccc4Sc4ccccc4C3N2)cc1 (stereo unspecified) :: 97.8% (inactive)
12. O=C1c2ccccc2-c2cn(Cc3ccccc3)c3cccc(c23)C1c1cccnc1 (stereo unspecified) :: 54% (inactive)
13. Cc1nn(-c2ccccc2)c2nc3nc4c(c(N)c3c(-c3ccc(Cl)cc3)c12)CCC4 :: 111% (inactive)
14. Clc1ccc(C2=Nc3cccc4cccc(c34)N2)cc1Cl :: 70.3% (inactive)
15. COc1cc2cc(Oc3ccc(NC(=O)Nc4cccc(C(F)(F)F)c4)cc3)c(C)nc2cc1OCCN1CCCCC1 :: -55.1% (active)
16. O=S(=O)(Nc1ccc(Cl)c(Cl)c1)c1ccc(-c2cnc(C3CC3)o2)cc1 :: 30.9% (inactive)
17. Clc1ccc2c(c1)C[C@H]1C[C@@H](c3cccs3)N2O1 :: 114% (inactive)
18. O=C(NCc1cccnc1)c1ccc([N+](=O)[O-])o1 :: 16.8% (inactive)
19. COc1ccc(-c2c3c(N)c4c(nc3nc3c2c(C)nn3-c2ccccc2)CCCCC4)cc1 :: 93.7% (inactive)
20. Cc1ccc(NS(=O)(=O)c2ccc(-c3cnc(C4CC4)o3)cc2)cc1 :: 37.6% (inactive)
21. COc1ncnc2c1ncn2C/C(Br)=C(\Br)CCl :: 89.9% (inactive)
22. COc1cc(Cn2cc(F)c(=O)[nH]c2=O)cc(OC)c1 :: 101% [50 µM] (inactive)
23. Cc1nn2c(-c3nc4ccc(Cl)cc4[nH]3)c(-c3ccc(F)cc3)nc2s1 :: 112% (inactive)
24. COc1cc(-c2nc3ccccc3o2)cc(CN2CCN(c3ccccc3)CC2)c1O :: 82.6% (inactive)
25. COc1ccc(-c2c(-c3cc4c(c(OC)c3OC)OCO4)noc2N)cc1 :: 40.6% (inactive)
26. COc1cc(-c2nc(SC(C)C)nc(Nc3ccccc3C)c2C#N)cc(OC)c1OC :: 100% (inactive)
27. COc1cccc(OC(=O)c2ccccc2)c1OC(=O)c1ccccc1 :: 73.5% (inactive)
28. COc1cccc(-c2ccc3c(c2)C2CCN(Cc4ccccc4)C3C2)c1 (stereo unspecified) :: 90.4% (inactive)
29. CN([N-]C(=O)CC(=O)[N-]N(C)C(=S)c1ccccc1)C(=S)c1ccccc1.[Cu+2] :: -96.1% (active)
30. O=S(=O)(Nc1ccccc1Cl)c1ccc(-c2cnc(C3CC3)o2)cc1 :: 39.2% (inactive)
31. C=C(C)COC(=O)c1ccccc1C(=O)OCC1(C)CO1 (stereo unspecified) :: 101% (inactive)
32. O=S(=O)(OCCO)c1ccccc1 :: 102% (inactive)
33. Cc1cccc2c(=O)c3c(sc12)c(NCCNCCO)nc1ccccc13 :: 49.6% (inactive)
34. COc1ccc(C(=O)C2=CC(=O)C(=O)C2)cc1OC :: 105% (inactive)
35. COc1ccc(-c2nc(Nc3ccc(F)cc3)nc(Nc3ccc4c(c3)nc(C)n4Cc3ccccc3)n2)cc1 :: 60.7% (inactive)
36. CCCCCCCCCCCCSC1=CC(=O)C=CC1=O :: 40.4% (inactive)
37. CCCCCCCC/C=C\CCCCCCCCOc1cccc(CC(=O)NCC[N+]2(C)CCCC2)c1 :: 62.6% (inactive)
38. O=C1CC2c3cc(-c4cc5ccccc5o4)ccc3CCN2C(=O)N1c1ccccc1 (stereo unspecified) :: 89.6% (inactive)
39. O=C1C2CC3C(CC2C(=O)[N]1[Sn]([c]1ccccc1)([c]1ccccc1)[c]1ccccc1)C1(Cl)C(Cl)=C(Cl)C3(Cl)C1(Cl)Cl (stereo unspecified) :: -97.4% (active)
40. COc1ccc(-c2cc(=O)oc3c4c(ccc23)OCN(Cc2ccc(F)cc2)C4)cc1 :: 72.2% (inactive)
41. CC1=C(C/C=C(\C)CCC[C@H](C)CCC[C@H](C)CCCC(C)C)C(=O)c2ccccc2C1=O :: 101% (inactive)
